Measured pKi values are reported for all entries that follow.
TGT: Adenosine receptor A1 (Homo sapiens, UniProt P30542)
Sequence (P30542 whole entry): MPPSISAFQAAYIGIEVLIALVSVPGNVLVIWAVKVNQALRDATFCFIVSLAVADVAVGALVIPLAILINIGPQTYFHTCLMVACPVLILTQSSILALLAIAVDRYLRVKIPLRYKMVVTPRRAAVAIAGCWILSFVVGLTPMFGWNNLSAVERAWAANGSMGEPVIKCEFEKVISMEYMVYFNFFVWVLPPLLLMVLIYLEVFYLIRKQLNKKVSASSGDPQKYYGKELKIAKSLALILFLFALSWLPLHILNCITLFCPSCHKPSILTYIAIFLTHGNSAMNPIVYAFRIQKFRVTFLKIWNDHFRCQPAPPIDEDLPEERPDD
PROCEDURE DETAILS: Displacement of radioligand from human adenosine A1 receptor expressed in CHO cells
Type: cell-based
Interpret pKi as the negative base-10 log of the concentration measured in mol/L.

>>> print(df.to_string())
                                chem_smiles  endpoint_value
0  CNC(=O)[C@@]12C[C@@H]1[C@@H](n1cnc3c(NCc4cccc(Cl)c4)nc(C#CCCCC(=O)NCCN)nc31)[C@H](O)[C@@H]2O            6.34

Ask: I would be grateful if you could share the reported pKi for `CNC(=O)[C@@]12C[C@@H]1[C@@H](n1cnc3c(NCc4cccc(Cl)c4)nc(C#C[Si](C)(C)C)nc31)[C@H](O)[C@@H]2O` .
Reply: 6.80

Ask: I would be grateful if you could share the reported pKi for `CNC(=O)[C@@]12C[C@@H]1[C@@H](n1cnc3c(NCc4cccc(Cl)c4)nc(C#CCCCC(=O)OC)nc31)[C@H](O)[C@@H]2O` .
Reply: 6.32

Ask: I would be grateful if you could share the reported pKi for `CNC(=O)[C@@]12C[C@@H]1[C@@H](n1cnc3c(NCc4cccc(C#CCCCC(=O)NCCN)c4)nc(Cl)nc31)[C@H](O)[C@@H]2O` .
Reply: 6.57

Ask: I would be grateful if you could share the reported pKi for `CNC(=O)[C@@]12C[C@@H]1[C@@H](n1cnc3c(NOC)nc(Cl)nc31)[C@H](O)[C@@H]2O` .
Reply: 6.58

###

TGT: Adenosine receptors; A1 & A3 (Homo sapiens) (UniProt P30542+P0DMS8)
Sequence (P0DMS8 whole entry, looked up, one chain of several): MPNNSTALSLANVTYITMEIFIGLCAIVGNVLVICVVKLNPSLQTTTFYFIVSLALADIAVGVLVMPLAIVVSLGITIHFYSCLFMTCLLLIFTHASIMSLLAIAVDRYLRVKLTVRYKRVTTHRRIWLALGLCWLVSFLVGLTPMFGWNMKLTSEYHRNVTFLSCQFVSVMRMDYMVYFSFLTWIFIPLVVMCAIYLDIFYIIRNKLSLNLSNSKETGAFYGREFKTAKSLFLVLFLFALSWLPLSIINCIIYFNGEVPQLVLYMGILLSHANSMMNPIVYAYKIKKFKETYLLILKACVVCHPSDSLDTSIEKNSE
PROCEDURE DETAILS: Selectivity for human adenosine A3 receptor over human adenosine A1 receptor
Measured Ratio Ki values are reported for all entries that follow.
Output: the number by itself.

Some solved entries appear below for comparison.
>>> print(df.to_string())
                                   molecule  endpoint_value
0  CNC(=O)C12C[C@@H]1[C@@H](n1cnc3c(NCc4cccc(Br)c4)nc(Cl)nc31)[C@H](O)[C@@H]2O (single isomer, unassigned)             710
1  CNC(=O)C12C[C@@H]1[C@@H](n1cnc3c(NCc4cc(OC)ccc4OC)nc(Cl)nc31)[C@H](O)[C@@H]2O (single isomer, unassigned)            1100

The record that follows has no Ratio Ki shown yet.
Ask: I would be grateful if you could share the reported Ratio Ki for CNC(=O)C12C[C@@H]1[C@@H](n1cnc3c(NCC(c4ccccc4)c4ccccc4)nc(Cl)nc31)[C@H](O)[C@@H]2O (single isomer, unassigned) .
Reply: 1900
